From: ChEMBL document CHEMBL2396641

Can you tell me EC50 for the items I'm about to list?
# System: Radical scavenging activity
# ASSAY_NOTES: Antioxidant activity assessed as DPPH radical scavenging activity after 30 mins by spectrophotometric analysis
# Format: functional

[in] # query: EC50 of entry COc1cc(OC)cc(-c2nc3cc(OC)ccc3[nH]2)c1
[out] > 200 µM

[in] # query: EC50 of entry COc1ccc2[nH]c(-c3ccc(O)c(OC)c3)nc2c1
[out] 58 µM

[in] # query: EC50 of entry COc1ccc(OC)c(-c2nc3cc(OC)ccc3[nH]2)c1
[out] > 200 µM

[in] # query: EC50 of entry COc1ccc2[nH]c(-c3ccc(OC)c(OC)c3)nc2c1
[out] > 200 µM
